Data origin, for the record: PubChem BioAssay (EPA / NIEHS)

Read-out: TIMP metallopeptidase inhibitor 1 (TIMP1), TIMP1 (gene 7076)
assay-overview: BSK_MyoF_TIMP1: BioMAP Diversity Plus: MyoF Assay for TIMP metallopeptidase inhibitor 1 (TIMP1) Biomarker Activity (AID 2284269)
condition-details: primary human lung fibroblasts
Activity calls are given as the source filed them. The calls were made as follows: active = hit-call score of the fitted dose curve at least 0.9, where 1 is the maximum; inactive = score below 0.9.
Output constraint: value belongs to active, inactive

# compound, label
rows = [
    ("Oc1c(Cl)cc(Cl)c(Cl)c1Cl", "active"),
]

Could you now consider this next compound?
input: Which outcome did this test record for the compound CCN1CN(CC)CN(CC)C1 ?
output: inactive

* * *

assay-overview: ATG_PBREM_CIS: Attagene CIS-FACTORIAL HepG2 Assay for human Phenobarbital-responsive Enhancer Module (PBREM) (AID 2282955)
condition-details: HepG2 PBREM cis-reporter, Attagene multiplexed transcription; actives raise or lower the signal
Active and inactive are the calls of the source. How the source made its calls: active means hit-call score of the fitted dose curve at least 0.9, where 1 is the maximum; inactive means score below 0.9.
Outcome field: choose from active, inactive

Example entries and their recorded answers appear below.
# molecule, label
data = [
    ("Cc1ccc([N+](=O)[O-])cc1N", "inactive"),
    ("Cc1c(C(=O)c2c[nH]n(C)c2=O)ccc(S(C)(=O)=O)c1C1=NOCC1", "inactive"),
    ("O=C(OCc1ccccc1)c1ccc(O)cc1", "active"),
]

input: Just curious, what result did C=CC(=O)OCCCCCCCCCC get here?
output: inactive

input: In this assay, the call recorded for CC(Cl)COP(=O)(OCC(C)Cl)OCC(C)Cl (stereo not given) was what?
output: inactive

input: Look up the recorded call for N#Cc1ccc(C2CCCc3cncn32)cc1 (stereo not given) in this test.
output: inactive

input: Would you mind telling me which call this test gave O=C(OCCc1ccccc1)c1ccccc1 ?
output: inactive

input: For this molecule, state the assay outcome: O=C(Oc1ccccc1)c1ccccc1O
output: inactive

input: What is the recorded call for this molecule in the test? CCCC(CC)c1ccccc1 (stereo not given)
output: inactive

input: How was CCCc1ccc(O)c(OC)c1 classified in this test?
output: inactive

input: Write down the call the test reported for this molecule. Item: CN(C)Cc1cc(CN(C)C)c(O)c(CN(C)C)c1
output: inactive
